Each recorded value in this set is attributed to patent US12391680B2.

- system: mutant CFTR (Homo sapiens)
- Sequence (P13569 with tags, fused parts or gaps DEL508-508): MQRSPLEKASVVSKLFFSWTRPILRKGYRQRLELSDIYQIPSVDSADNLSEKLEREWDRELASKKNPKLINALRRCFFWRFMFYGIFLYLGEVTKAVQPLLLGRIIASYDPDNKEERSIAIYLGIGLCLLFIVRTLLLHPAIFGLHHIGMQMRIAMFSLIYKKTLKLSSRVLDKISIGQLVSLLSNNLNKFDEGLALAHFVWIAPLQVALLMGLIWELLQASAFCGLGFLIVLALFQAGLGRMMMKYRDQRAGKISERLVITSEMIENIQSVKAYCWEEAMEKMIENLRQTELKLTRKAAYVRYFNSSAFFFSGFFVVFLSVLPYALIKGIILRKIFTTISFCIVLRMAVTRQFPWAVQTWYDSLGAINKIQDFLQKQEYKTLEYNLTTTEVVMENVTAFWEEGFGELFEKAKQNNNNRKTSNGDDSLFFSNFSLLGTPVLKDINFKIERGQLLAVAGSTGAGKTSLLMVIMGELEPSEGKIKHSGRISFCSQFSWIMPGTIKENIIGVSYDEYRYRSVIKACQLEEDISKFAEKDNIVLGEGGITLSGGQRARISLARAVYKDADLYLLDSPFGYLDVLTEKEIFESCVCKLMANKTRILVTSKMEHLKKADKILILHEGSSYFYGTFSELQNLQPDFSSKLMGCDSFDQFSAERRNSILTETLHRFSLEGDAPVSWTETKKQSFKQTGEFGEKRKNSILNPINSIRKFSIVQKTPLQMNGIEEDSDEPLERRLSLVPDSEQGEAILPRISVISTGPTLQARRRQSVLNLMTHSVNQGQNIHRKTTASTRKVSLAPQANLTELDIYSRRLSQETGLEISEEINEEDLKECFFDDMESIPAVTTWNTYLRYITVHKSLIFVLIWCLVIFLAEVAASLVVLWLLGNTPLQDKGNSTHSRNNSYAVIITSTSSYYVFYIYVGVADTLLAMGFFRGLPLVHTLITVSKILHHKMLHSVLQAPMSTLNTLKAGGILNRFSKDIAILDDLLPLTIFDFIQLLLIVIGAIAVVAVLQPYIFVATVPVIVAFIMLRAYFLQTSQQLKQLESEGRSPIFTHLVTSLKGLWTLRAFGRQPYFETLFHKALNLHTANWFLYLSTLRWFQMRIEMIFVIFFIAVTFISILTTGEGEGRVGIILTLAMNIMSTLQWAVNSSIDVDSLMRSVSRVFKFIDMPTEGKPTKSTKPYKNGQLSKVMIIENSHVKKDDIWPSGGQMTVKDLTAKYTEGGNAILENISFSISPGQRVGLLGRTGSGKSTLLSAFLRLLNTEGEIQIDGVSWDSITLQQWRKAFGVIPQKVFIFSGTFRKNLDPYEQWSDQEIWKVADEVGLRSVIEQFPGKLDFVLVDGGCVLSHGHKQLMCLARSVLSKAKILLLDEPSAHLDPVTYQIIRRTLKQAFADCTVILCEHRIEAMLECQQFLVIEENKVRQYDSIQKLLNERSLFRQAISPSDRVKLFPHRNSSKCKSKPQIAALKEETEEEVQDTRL
- protocolDetails: Fluorescence assay for CFTR activity (halide-sensitive YFP, HS-YFP)
- testContext: CFBE41o- and FRT cells with stable expression of mutant CFTR
Listed molecules paired with reported EC50

{"columns": ["molecule", "EC50"],
 "data": [
  ["CC(C)Oc1ccc(S(=O)(=O)N2CCOC(c3c(C(N)=O)sc4ccccc34)C2)cc1 (racemic)", "< 1 µM"],
  ["Cc1n[nH]c(C)c1S(=O)(=O)N1CCOC(c2c(C(=O)N(C)C)sc3ccccc23)C1 (stereo not drawn)", "> 2 µM"],
  ["Cc1noc(C)c1S(=O)(=O)N1CCOC(c2c(C(N)=O)sc3ccccc23)C1 (racemic)", "> 2 µM"],
  ["Cc1ccc(S(=O)(=O)N2CCOC(c3c(C(N)=O)sc4ccccc34)C2)cc1 (racemic)", "< 1 µM"],
  ["Cc1cc(S(=O)(=O)N2CCOC(c3c(C(=O)N(C)C)sc4ccccc34)C2)ccc1F (racemic)", "> 2 µM"],
  ["COc1ccc(S(=O)(=O)N2CCOC(c3c(C(N)=O)sc4ccccc34)C2)cc1C (racemic)", "> 2 µM"],
  ["COc1cc(S(=O)(=O)N2CCOC(c3c(C(N)=O)sc4ccccc34)C2)ccc1C(F)(F)F (racemic)", "1 to 2 µM"],
  ["NC(=O)c1sc2ccccc2c1C1CN(S(=O)(=O)C2CCCCC2)CCO1 (racemic)", "> 2 µM"]
]}

Entry under test: Cc1cc(S(=O)(=O)N2CCOC(c3c(C(N)=O)sc4ccccc34)C2)ccc1C(F)(F)F (racemic) . Its EC50 was 1 to 2 µM

EC50 reported for this molecule NC(=O)c1sc2ccccc2c1C1CN(S(=O)(=O)c2ccc(C(F)(F)F)c(F)c2)CCO1 (racemic) [compound 041] : < 1 µM

The value of EC50 measured for the molecule CN(C)C(=O)c1sc2ccccc2c1C1CN(S(=O)(=O)C2CCCC2)CCO1 (stereo not drawn) turned out to be > 2 µM

Please fill in: EC50 reported for Cc1c(S(=O)(=O)N2CCOC(c3c(C(=O)N(C)C)sc4ccccc34)C2)cnn1C (stereo not drawn) = > 2 µM

// EC50 value for NC(=O)c1sc2ccccc2c1C1CN(S(=O)(=O)c2ccc(OC(F)(F)F)cc2)CCO1 (racemic) : < 1 µM

Form: molecule = CNC(=O)c1sc2ccccc2c1C1CN(S(=O)(=O)C2CCCC2)CCO1 (stereo not drawn) ; EC50 = > 2 µM
